- Test system: Rattus norvegicus
- Condition info: acute; Inhalation; Sprague-Dawley
Property: LC50

As a guide, the following entries are already answered.
{"Compound": "Cc1ccc(OP(=O)(Oc2ccc(C)cc2)Oc2ccc(C)cc2)cc1.Cc1cccc(OP(=O)(Oc2cccc(C)c2)Oc2cccc(C)c2)c1.Cc1ccccc1OP(=O)(Oc1ccccc1C)Oc1ccccc1C [Tris(methylphenyl) phosphate]", "Assay value": "> 5.2 µg/mL"}
{"Compound": "CCCCCCC=O [Heptanal]", "Assay value": "> 4.7 µg/mL"}
{"Compound": "OC1CCCCC1 [Cyclohexanol]", "Assay value": "> 3.63 µg/mL"}

Turning now to a further record.
Qu. Using known records, supply LC50 for N#Cc1cccc(C#N)c1 [1,3-Benzenedicarbonitrile]
Ans. > 8970 mg/m3
